Please respond with reported pIC50 for every item in the list.
The meaning of pIC50 here: minus log10 of the concentration in molar units.

The compound CCN(CCCCOc1ccc(-c2cc(=O)c3c(O)cc(OCCCCN(CC)Cc4ccccc4)cc3o2)cc1)Cc1ccccc1 [Compound 10h] on UniProt:P22303: pIC50 was 6.80

Assay UniProt:P22303, sample CCN(CCCCCOc1cc(O)c2c(c1)OC(c1ccc(O)cc1)CC2=O)Cc1ccccc1 (stereo not shown) , pIC50 read: 6.04

UniProt:P22303 pIC50 of CCN(CCCCCOc1ccc(-c2cc(=O)c3c(O)cc(OCCCCCN(CC)Cc4ccccc4)cc3o2)cc1)Cc1ccccc1 [Compound 10k] is 6.89

Summary: CCN(CCCCCOc1ccc(-c2cc(=O)c3c(O)cc(OCCCCCN(CC)Cc4ccccc4OC)cc3o2)cc1)Cc1ccccc1OC [Compound 10l] , UniProt:P22303, pIC50 = 7.05
